molecular target: T1, full-length spike protein of SARS-CoV-2 (Wuhan strain) (SARS-CoV-2 (Wuhan strain), UniProt P0DTC2 14-1273); assay: ACE2 competition, spike on 293T cells, antibody 4 µg/mL
T1 construct: whole, on cells; Expressed in 293T cells
Here the recorded binding amount (%) of ACE2 protein is given for each entry.

BINDER	binding amount (%) of ACE2 protein
Ab816 (antibody, V domains shown) VH: QVQLVQSGAEVKKPGESLMISCKASGYNFRNYWIAWVRQMPGKGLEWMGIIHPGDSDIRYRPSLQGHVTISADKSITTAYLQWGSLKASDTAMYYCTRITTDADSSGLFHYWGQGTLVTVSS VL: EIVLTQSPSTLSASVGDRVTITCRASQNIYTWLAWYQRKPGKAPKVLIYKASSLESGVPSRFSGSGSGTEFTLTISSLQPDDFATYYCQQYKSAWSFGQGTKVEIK	0.3
Ab376 (antibody, V domains shown) VH: EVQLVESGGGLVQPGGSLRLSCEASEFTLNSHYMNWVRQAPGKGLEWVSVIYSSGSTYYADSVKGRFTISRHNSKDTLYLQMNSLKPEDTAVYYCARPNYGGNSIWYFDLWGRGTLVTVSS VL: DIQMTQSPSSVSASVGDRVTITCRASQGIGSWLAWYQQTPGKAPKLLIYAASSLQSGVPSRFSGSGSGTDFTLTISSLQPEDFATYYCQQANSFPLTFGGGTKVEIK	5.1
